system: WNK4; conditions: concentration: 1 μM, replicates: in singlicate; n = 1;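 further: KINOMEscan kinase panel screen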
Listed next: entries and their corresponding %Inh.
Kindly provide the numeric value in % only, without the unit symbol.

These solved cases illustrate the format of a correct answer.
COMPOUND	SYSTEM NAME	NUMERIC RESULT
Cl.Cl.NCC(NC(=O)c1cc(-c2ccccc2)c(-c2ccnc3[nH]ccc23)s1)c1ccccc1 (centres unmarked)	WNK4	5
CN(C)Cc1ccc(-c2ccc3c(Nc4ccc(Oc5ccccn5)cc4)ccnc3c2)o1	WNK4	19
COc1cccc(NC(=O)NC2CCN(c3ccnc(Nc4cc(OC)c(OC)c(OC)c4)n3)C2)c1 (centres unmarked)	WNK4	11
COc1cccc(-c2ccc3c(NC(=O)C4CC4)n[nH]c3n2)c1	WNK4	87
Cl.c1ccc(-c2ccc3c(Nc4ccc5[nH]ccc5c4)ccnc3c2)nc1	WNK4	55

Looking up COc1cc(Nc2nccc(N3CCC(NC(=O)c4cc5ccccc5s4)C3)n2)cc(OC)c1OC (centres unmarked) , I see its %Inh listed as 11

Looking up Cc1ccc(C(=O)Nc2ccc(Nc3ccnc4cc(-c5nccs5)ccc34)cc2O)cc1.Cl , I see its %Inh listed as 39

Looking up Cc1ccc(S(=O)(=O)Nc2ccc(Nc3nccc(Nc4cccc5[nH]ncc45)n3)cc2)cc1 , I see its %Inh listed as 16

----------
system: TRKA; construct: gene NTRK1; conditions: concentration: 1 μM, replicates: in singlicate; n = 1
REPORTED ENDPOINT: %Inh (%)
Kindly provide the numeric value in % only, without the unit symbol.

These solved cases illustrate the format of a correct answer.
Cc1cccc(Nc2nc(N[C@H]3CCNC3)ncc2C(N)=O)c1.Cl 93.3
Cl.c1ccc(-c2ccc3c(Nc4ccc5[nH]ccc5c4)ccnc3c2)nc1 0
COc1cccc(C2=C(Nc3ccc(Cl)c(C(=O)O)c3)C(=O)NC2=O)c1 0

Query compound follows.
Looking up Cl.NC(=O)c1cccc(Nc2nccc(Nc3ccc(Oc4c(Cl)cccc4Cl)c(Cl)c3)n2)c1 , I see its %Inh listed as 20

----------
system: TAOK2; details: concentration: 1 μM, replicates: in singlicate; n = 1
REPORTED ENDPOINT: %Inh (%)
Kindly provide the numeric value in % only, without the unit symbol.

These solved cases illustrate the format of a correct answer.
MOLECULE	%Inh / %
O=C(Nc1n[nH]c2cc(-c3ccoc3)ccc12)C1CC1 [SB-738481]	27
CNC(=O)c1ccccc1Nc1nc(Nc2ccc(N3CCOCC3)cc2)ncc1Cl.Cl [GSK1576028]	83
O=C(Nc1cccc(-c2nn3ncccc3c2-c2ccnc(Nc3ccccc3)n2)c1)c1c(F)cccc1F [GSK198271]	93.2
Cl.Cl.NCC(NCc1ccc(-c2ccnc3[nH]ccc23)s1)c1ccccc1 (centres unmarked) [GSK1321565]	0
CCCCc1nn2ncccc2c1-c1ccnc(Nc2ccc(N3CCN(C)CC3)cc2)n1 [GW684941]	47

%Inh for TAOK2 with input Cn1cc(-c2[nH]c3cc(NC(=O)[C@H](N)C4CCCCC4)cc4c3c2C=NNC4=O)cn1 equals 0

%Inh for TAOK2 with input O=C(Nc1ccccc1F)NC1CCN(c2ccnc(Nc3ccc(F)cc3)n2)CC1 [GSK1379800] equals 0

%Inh for TAOK2 with input O=C(Nc1cccc(Oc2ccc3nc(NC(=O)C4CC4)cn3n2)c1)c1ccccc1C(F)(F)F equals 34

%Inh for TAOK2 with input CC(C)(C)c1ccc2nccc(Nc3cccc(O)c3)c2c1 [GW856795] equals 0

%Inh for TAOK2 with input CCS(=O)(=O)c1ccc(OC)c(Nc2nccc(-c3c(-c4cccc(NC(=O)c5c(F)cccc5F)c4)nn4ncccc34)n2)c1 [GSK326180] equals 0

%Inh for TAOK2 with input FC(F)(F)c1ccc(/C=C/c2cncnc2Nc2ccc3[nH]c(Cc4ccccc4)nc3c2)cc1 [GW709199] equals 0

----------
test system: ZAK; details: concentration: 1 μM, replicates: in singlicate; n = 1
Label rule, in plain words: %Inh of 60% and up is Criterion met, under 60% is Criterion not met.

COMPOUND	QUALITATIVE LABEL
COc1cccc(C(=O)Nc2cccc(Oc3ccc4nc(NC(=O)C5CC5)cn4n3)c2)c1	Criterion met

Does the compound CN1CCN(Cc2cccc(-c3ccc4c(Nc5ccc(Oc6ccccc6)cc5)ccnc4c3)c2)CC1 have recorded %Inh that is 60% or more? Criterion met

Does the compound Cn1cc(-c2ccc3c(c2)CCN3C(=O)Cc2cccc(F)c2)c2c(N)ncnc21 have recorded %Inh that is 60% or more? Criterion not met

Does the compound CCS(=O)(=O)c1ccc(OC)c(Nc2nccc(-c3c(-c4cccc(NC(=O)c5c(F)cccc5F)c4)nn4ncccc34)n2)c1 have recorded %Inh that is 60% or more? Criterion not met

Does the compound Oc1cc(Nc2ccnc3cc(I)ccc23)ccc1F have recorded %Inh that is 60% or more? Criterion met

Does the compound CC(C)(C)c1ccc2nccc(Nc3cccc(O)c3)c2c1 have recorded %Inh that is 60% or more? Criterion not met

Does the compound COc1cc(Nc2nccc(N3CCC(NC(=O)Nc4cccc(C(C)=O)c4)C3)n2)cc(OC)c1OC (centres unmarked) have recorded %Inh that is 60% or more? Criterion not met

Does the compound COc1ccc(CNC(=O)NC2CCN(c3ccnc(Nc4ccc(F)cc4)n3)CC2)cc1 have recorded %Inh that is 60% or more? Criterion not met

----------
tested on: NEK10; conditions: concentration: 1 μM, replicates: in singlicate; n = 1
Listed next: entries and their corresponding %Inh.
Kindly provide the numeric value in % only, without the unit symbol.

These solved cases illustrate the format of a correct answer.
CN(C)S(=O)(=O)c1cc(-c2ccc3nccc(-c4cccc(S(N)(=O)=O)c4)c3c2)cnc1N 9
COC(=O)Nc1nc2ccc(Oc3ccc(NC(=O)Nc4cc(C(F)(F)F)ccc4F)cc3)cc2n1C.Cl 1
COc1ccc(-c2coc3ccc(-c4nnc(SCc5ccc(OC)c(C(F)(F)F)c5)o4)cc23)cc1 0
Cn1cc(-c2ccc3c(c2)CCN3C(=O)Cc2cccc(F)c2)c2c(N)ncnc21 22
CCc1ccc(-c2ccc3c(c2)-c2c(cnn2C)S(=O)(=O)N3C)cc1 9
O=C(Nc1cccc(-c2nn3ccccc3c2-c2ccnc(Nc3cccc(F)c3)n2)c1)c1c(F)ccc(F)c1Cl 44
Nc1n[nH]c2cnc(-c3ccccc3)cc12 47
c1ccc(-c2n[nH]cc2Nc2ccnc3ccccc23)nc1 95.7

Looking up Nc1ncnc2c1nc(-c1ccccc1)n2-c1ccccc1 , I see its %Inh listed as 21

----------
Listed next: entries and their corresponding %Inh.
test system: EPHB4; details: concentration: 1 μM, replicates: in singlicate; n = 1
Kindly provide the numeric value in % only, without the unit symbol.

These solved cases illustrate the format of a correct answer.
COMPOUND	NUMERIC RESULT
COc1cccc(C2=C(Nc3ccc(Cl)c(C(=O)O)c3)C(=O)NC2=O)c1 [SB-390769]	10
O=C(O)C(F)(F)F.O=C(O)C(F)(F)F.O=c1[nH]ccc2nc(N[C@@H]3CCCNC3)nc(Nc3ccc(S(=O)(=O)N4CCOCC4)cc3)c12 [GSK2177277]	21
Cn1cc(-c2ccc3c(c2)CCN3C(=O)Cc2cccc(F)c2)c2c(N)ncnc21 [GSK2603358]	16

Looking up Cn1cc(-c2ccc3c(c2)CCN3C(=O)Cc2cccc(Cl)c2)c2c(N)ncnc21 [GSK2606590] , I see its %Inh listed as 8

----------
tested on: MUSK; conditions: concentration: 1 μM, replicates: in singlicate; n = 1
Listed next: entries and their corresponding %Inh.
Kindly provide the numeric value in % only, without the unit symbol.

These solved cases illustrate the format of a correct answer.
C[C@@H]1CC[C@@H](C(=O)Nc2ccccc2)CN1c1cc(-c2ccc3c(N)n[nH]c3c2)nc(N)n1 0
O=C(Nc1cccc(-c2nn3ncccc3c2-c2ccnc(Nc3ccccc3)n2)c1)c1c(F)cccc1F 4
Cc1ccc(C(=O)N2CC[C@@H](O)C2)cc1-n1c(C)cc(OCc2ccc(F)cc2F)c(Br)c1=O 9
COC(=O)Nc1nc2cc(Oc3ccc(NC(=O)Nc4cc(C(F)(F)F)ccc4F)cn3)ccc2[nH]1.Cl.Cl 99.4
c1ccc(Oc2ccc(Nc3ccnc4cc(-c5ccc(CNCCN6CCOCC6)o5)ccc34)cc2)nc1 1

Looking up CN(c1ccc(NC(=O)Nc2cc(C(F)(F)F)ccc2F)cc1)c1ccnc(Nc2ccc(S(N)(=O)=O)cc2)n1 , I see its %Inh listed as 95.3

Looking up COc1cc2c(cc1OCCN1CCNCC1)ncc1c3ccc(C#N)cc3[nH]c21 , I see its %Inh listed as 0

Looking up CN(C)Cc1ccc(-c2ccc3c(Nc4ccc(Oc5ccccn5)cc4)ccnc3c2)o1 , I see its %Inh listed as 0

----------
system: EPHB6; conditions: concentration: 1 μM, replicates: in singlicate; n = 1
Listed next: entries and their corresponding %Inh.
Kindly provide the numeric value in % only, without the unit symbol.

These solved cases illustrate the format of a correct answer.
MOLECULE	NUMERIC RESULT
C[C@@H]1CC[C@@H](C(=O)Nc2ccccc2)CN1c1cc(-c2ccc3c(N)n[nH]c3c2)nc(N)n1 [GSK2286062]	14
c1ccc(-c2cnc3nccnn23)cc1 [AH20685]	1
CN1CCN(CCCNc2nccc(-c3c(-c4ccc(F)cc4)nn4cc(C(F)(F)F)ccc34)n2)CC1 [GW621581]	26
Cl.c1ccc(-c2ccc3c(Nc4ccc5[nH]ncc5c4)ccnc3c2)nc1 [GW440137]	46

Query molecule follows.
Looking up Cl.NC(=O)c1cccc(Nc2nccc(Nc3ccc(Oc4c(Cl)cccc4Cl)c(Cl)c3)n2)c1 [GW659009] , I see its %Inh listed as 32
